Each record here notes measured abundance fitness.
B1: WW domain-containing transcription regulator protein 1, residues 116 to 162; numbered along this chain, Q9GZV5 (parent)
chain: QSYDVTDELPLPPGWEMTFTATGQRYFLNHIEKITTWQDPRKAMNQP

variants of: B1; assay: abundance fitness (aPCA) (normalised: wild type 0, dead -1); higher = more abundant; growth selection in yeast, the domain comes from the species named; conditions: Homo sapiens
Respond numerically, and do not add a unit to the figure.

Below, each entry is followed by its recorded abundance fitness result.
>>> print(df.to_string())
   mutationcode  measvalue
0          T18K      0.097
1          Q24W      -0.82
2          W15Q       -0.5
3          T36F      -1.05
4          P12H     -0.907
5           Q1G     -0.163

Lab note: next variant to report on.
Exercise: Item P12A has what recorded abundance fitness?
Solution: -0.467
